- systemName: UniProt:P20272
- Sequence (P20272 whole entry): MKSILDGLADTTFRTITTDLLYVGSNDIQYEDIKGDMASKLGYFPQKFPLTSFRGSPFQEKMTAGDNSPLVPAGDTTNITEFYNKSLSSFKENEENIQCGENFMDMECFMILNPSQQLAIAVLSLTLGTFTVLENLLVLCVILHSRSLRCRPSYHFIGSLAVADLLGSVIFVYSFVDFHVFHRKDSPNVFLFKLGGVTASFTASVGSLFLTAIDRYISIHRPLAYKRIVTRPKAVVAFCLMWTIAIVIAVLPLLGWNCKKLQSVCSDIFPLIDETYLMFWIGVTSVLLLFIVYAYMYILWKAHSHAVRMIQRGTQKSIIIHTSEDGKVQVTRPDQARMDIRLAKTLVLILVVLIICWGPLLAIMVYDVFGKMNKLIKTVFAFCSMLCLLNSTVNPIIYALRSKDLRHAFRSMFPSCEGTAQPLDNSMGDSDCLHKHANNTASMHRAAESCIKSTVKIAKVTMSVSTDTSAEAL
metricName: Ki (nM)
One number for each entry, in nM.

>>> recordedresult("CCCCCn1cc(C(=O)NC2CCCCCC2)c(=O)n2nc(-c3ccccc3)cc12")
900

As a next step, examine the molecule that follows.
*Q* Report measured Ki on UniProt:P20272; entry: CCCCCn1cc(C(=O)NC23CC4CC(CC(C4)C2)C3)c(=O)n2nc(C)cc12
*A* 1460

---

- systemName: Cannabinoid receptor 2 (Homo sapiens)
- Sequence (P34972 whole entry): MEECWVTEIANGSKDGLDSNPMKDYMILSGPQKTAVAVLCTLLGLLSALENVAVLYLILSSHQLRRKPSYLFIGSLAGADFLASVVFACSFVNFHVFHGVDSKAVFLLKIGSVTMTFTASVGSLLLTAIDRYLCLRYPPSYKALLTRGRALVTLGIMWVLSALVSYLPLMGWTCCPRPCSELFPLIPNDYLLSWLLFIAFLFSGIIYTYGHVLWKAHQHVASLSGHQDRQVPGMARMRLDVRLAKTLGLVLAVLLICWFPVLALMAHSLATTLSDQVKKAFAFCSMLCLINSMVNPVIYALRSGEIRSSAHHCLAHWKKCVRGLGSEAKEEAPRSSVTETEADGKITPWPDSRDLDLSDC
- assayRemarks: Inverse agonist activity at human CB2 receptor expressed in CHO cell membrane assessed as increase in forskolin-stimulated cAMP production at 10 uM by scintillation counting analysis relative to WIN55212-2
metricName: Activity

>>> recordedresult("CCCCCn1cc(C(=O)NC2CCCCCC2)c(=O)n2nc(-c3ccccc3)cc12")
"134%"

Count: 7. Required value per item: Activity.
1. CCCCCn1cc(C(=O)NC23CC4CC(CC(C4)C2)C3)c(=O)n2nc(-c3ccc(Cl)cc3)cc12
2. CCCCCn1cc(C(=O)NC2CCCCC2)c(=O)n2nc(-c3ccc(Cl)cc3)cc12
3. CCCCCn1cc(C(=O)NC23CC4CC(CC(C4)C2)C3)c(=O)n2nc(-c3ccc(Cl)cc3Cl)cc12
4. CCCCCn1cc(C(=O)NC23CC4CC(CC(C4)C2)C3)c(=O)n2nc(-c3ccc(C)cc3)cc12
5. CCCCCn1cc(C(=O)NC23CC4CC(CC(C4)C2)C3)c(=O)n2nc(-c3ccccc3C)cc12
6. CCCCCn1cc(C(=O)NC2CCCCCC2)c(=O)n2nc(-c3ccccc3C)cc12
7. CCCCCn1cc(C(=O)NC23CC4CC(CC(C4)C2)C3)c(=O)n2nc(-c3ccc(C)s3)cc12

*A*
1: 183%; 2: 94%; 3: 112%; 4: 168%; 5: 184%; 6: 125%; 7: 68%

---

Target or system Cannabinoid receptor 2 (Homo sapiens, UniProt P34972); recorded quantity Ki.
Answers are plain numbers, in µM.

>>> recordedresult("CCCCCn1cc(C(=O)NC23CC4CC(CC(C4)C2)C3)c(=O)n2nc(-c3ccc(C)s3)cc12")
0.0116
>>> recordedresult("CCCCCn1cc(C(=O)NC23CC4CC(CC(C4)C2)C3)c(=O)n2nc(-c3ccoc3)cc12")
0.0101
>>> recordedresult("CCCCCn1cc(C(=O)NC23CC4CC(CC(C4)C2)C3)c(=O)n2nc(C)c(-c3ccc(OC)cc3)c12")
0.35
>>> recordedresult("CCCCCn1cc(C(=O)NC2CCCCC2)c(=O)n2nc(-c3ccccc3)cc12")
0.042

As a next step, examine the compound that follows.
*Q* Output measured Ki for this item: CCCCCn1cc(C(=O)NC23CC4CC(CC(C4)C2)C3)c(=O)n2nc(-c3ccco3)cc12
*A* 0.00492

---

- systemName: Cannabinoid receptor 1 (Homo sapiens, UniProt P21554)
- Sequence (P21554 whole entry): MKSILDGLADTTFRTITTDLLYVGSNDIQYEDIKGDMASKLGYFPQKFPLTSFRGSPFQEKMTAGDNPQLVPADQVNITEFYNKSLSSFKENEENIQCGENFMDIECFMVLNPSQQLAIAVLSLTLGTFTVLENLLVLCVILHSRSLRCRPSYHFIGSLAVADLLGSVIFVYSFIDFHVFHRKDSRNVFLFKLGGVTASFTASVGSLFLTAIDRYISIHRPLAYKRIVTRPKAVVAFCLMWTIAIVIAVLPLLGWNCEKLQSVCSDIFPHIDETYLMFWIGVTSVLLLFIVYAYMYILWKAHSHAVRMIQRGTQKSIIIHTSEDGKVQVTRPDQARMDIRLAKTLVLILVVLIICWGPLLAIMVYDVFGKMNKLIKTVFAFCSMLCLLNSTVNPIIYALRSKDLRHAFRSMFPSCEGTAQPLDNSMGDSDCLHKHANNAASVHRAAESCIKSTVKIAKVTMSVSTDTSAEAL
- assayRemarks: Displacement of [3H]CP-55940 from human CB1 receptor expressed in CHO cell membrane at > 10 uM after 90 mins by scintillation counting analysis
- Type: cell membranes
Tag: Satisfied if measured Activity is not below 30%, Not satisfied if it is.

>>> labelvalue("CCCCCn1cc(C(=O)NC23CC4CC(CC(C4)C2)C3)c(=O)n2nc(C)c(-c3ccc(OC)cc3)c12")
"Not satisfied"

*Q* Determine whether measured Activity meets or exceeds 30% for CCCCCn1cc(C(=O)NC2CCCCCC2)c(=O)n2nc(-c3ccccc3C)cc12
*A* Satisfied

*Q* Determine whether measured Activity meets or exceeds 30% for CCCCCn1cc(C(=O)NC2CCCCCC2)c(=O)n2nc(-c3ccc(Cl)cc3Cl)cc12
*A* Satisfied

Where do the numbers come from? From ChEMBL document CHEMBL2380310.
